B1: PTPRD (parent)
chain: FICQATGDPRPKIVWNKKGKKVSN

variants of: B1; experiment: protein stability index of a GFP-peptide fusion (GPS, HEK-293T) (PSI 1-6); higher = more stable; conditions: c terminus: a fixed tail appended;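 also: lentivirally expressed fusions sorted by FACS into six bins by GFP to DsRed ratio, PSI derived from sequencing read proportions per bin multiplied by bin number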
Recorded Endpoint: protein stability index
No unit in the answer, please; the number alone is enough.

Exercise: Answer with the recorded protein stability index for the variant listed here: N16A
Solution: 1.72

Exercise: Answer with the recorded protein stability index for the variant listed here: Q4I
Solution: 1.84

Exercise: Answer with the recorded protein stability index for the variant listed here: G19M
Solution: 2.22

Exercise: Answer with the recorded protein stability index for the variant listed here: I13F
Solution: 1.62

Exercise: Answer with the recorded protein stability index for the variant listed here: G19N
Solution: 1.56

Exercise: Answer with the recorded protein stability index for the variant listed here: I13N
Solution: 1.88

Exercise: Answer with the recorded protein stability index for the variant listed here: P11H
Solution: 2.4

Exercise: Answer with the recorded protein stability index for the variant listed here: K21Y
Solution: 1.49

Exercise: Answer with the recorded protein stability index for the variant listed here: A5N
Solution: 2.09

Exercise: Answer with the recorded protein stability index for the variant listed here: V22P
Solution: 2.62

Exercise: Answer with the recorded protein stability index for the variant listed here: K12W
Solution: 1.6

Exercise: Answer with the recorded protein stability index for the variant listed here: T6I
Solution: 1.61

Exercise: Answer with the recorded protein stability index for the variant listed here: K18P
Solution: 1.97

Exercise: Answer with the recorded protein stability index for the variant listed here: P9M
Solution: 2.36

Exercise: Answer with the recorded protein stability index for the variant listed here: I2V
Solution: 2.34

Exercise: Answer with the recorded protein stability index for the variant listed here: G19T
Solution: 2.14

Exercise: Answer with the recorded protein stability index for the variant listed here: D8M
Solution: 1.8

Exercise: Answer with the recorded protein stability index for the variant listed here: K21D
Solution: 1.99

Exercise: Answer with the recorded protein stability index for the variant listed here: I2P
Solution: 3.89

Exercise: Answer with the recorded protein stability index for the variant listed here: K21V
Solution: 1.9

Exercise: Answer with the recorded protein stability index for the variant listed here: G7C
Solution: 1.87

Exercise: Answer with the recorded protein stability index for the variant listed here: K17W
Solution: 2.78

Exercise: Answer with the recorded protein stability index for the variant listed here: G19Y
Solution: 1.27

Exercise: Answer with the recorded protein stability index for the variant listed here: V14F
Solution: 3.73

Exercise: Answer with the recorded protein stability index for the variant listed here: N24G
Solution: 2.22

Exercise: Answer with the recorded protein stability index for the variant listed here: C3F
Solution: 1.92

Exercise: Answer with the recorded protein stability index for the variant listed here: N16W
Solution: 1.48

Exercise: Answer with the recorded protein stability index for the variant listed here: K17S
Solution: 1.79

Exercise: Answer with the recorded protein stability index for the variant listed here: V14W
Solution: 2.18

Exercise: Answer with the recorded protein stability index for the variant listed here: K18D
Solution: 1.95
